Test system: COLO 205
Assay: In vitro cytotoxicity, Development Therapeutics Program
Format: cell-based
Conditions: COLO 205, colon cancer; 1.0×10^−5 M
// returns criterion not met unless Cellular growth rate (%) is strictly below -30%, in which case criterion met

[[record]]
smiles_record = "O=C(CCN1CCCC1)Nc1ccc2c(c1)C(=O)c1cc(NC(=O)CCN3CCCC3)ccc1C2=O"
category = "criterion not met"


For CN(C)CC(=O)Nc1ccc2c(c1)C(=O)c1cc(NC(=O)CN(C)C)ccc1C2=O , is the recorded Cellular growth rate (%) below the cut-off of -30%?
criterion met

Threshold test, Cellular growth rate (%) < -30%: O=C1c2ccc(NC(=O)C3CC3)cc2C(=O)c2cc(NC(=O)C3CC3)ccc21
criterion not met

Threshold test, Cellular growth rate (%) < -30%: CCN(CC)CCC(=O)Nc1ccc2c(c1)C(=O)c1cc(NC(=O)CCN(CC)CC)ccc1C2=O
criterion met

Does this compound meet the criterion Cellular growth rate (%) < -30%? CC(=O)Nc1ccc2c(c1)C(=O)c1cc(NC(C)=O)ccc1C2=O
criterion not met

* * *

Use 300 °C as the dividing line for melting point, with the line itself on the rule met side and lower values as rule not met.

[[record]]
smiles_record = "O=C(CCc1ccccc1)Nc1ccc2c(c1)C(=O)c1cc(NC(=O)CCc3ccccc3)ccc1C2=O"
category = "rule not met"


I'd appreciate it if you could say whether O=C1c2ccc([N+](=O)[O-])cc2C(=O)c2cc([N+](=O)[O-])ccc21 has melting point at least equal to 300 °C.
rule not met

Item CCCC(=O)Nc1ccc2c(c1)C(=O)c1cc(NC(=O)CCC)ccc1C2=O with melting point of 300 °C or above?
rule not met

Given the entry CC(=O)Nc1ccc2c(c1)C(=O)c1cc(NC(C)=O)ccc1C2=O , answer whether its melting point meets or surpasses 300 °C.
rule met

Check the entry O=C(CN1CCCC1)Nc1ccc2c(c1)C(=O)c1cc(NC(=O)CN3CCCC3)ccc1C2=O : does melting point equal or exceed 300 °C?
rule not met

* * *

Assignment: determine reported viability at 48 h, 100 µM for the given compounds.
Experiment: MTT assay in BJ1 cells
Format: cell-based
Conditions: human, hTERT-BJ1-PTERT(3.4)-SEAP cells; BJ1; compound concentration 100 μM; read-out: MTT (Inhibition μM ± SD)
Answers are plain numbers, in %.

Past entries and their recorded results:
[[record]]
smiles_record = "CCCCNCC(=O)Nc1ccc2c(c1)C(=O)c1cc(NC(=O)CNCCCC)ccc1C2=O"
value_reported = 43

[[record]]
smiles_record = "O=C(CN1CCCC1)Nc1ccc2c(c1)C(=O)c1cc(NC(=O)CN3CCCC3)ccc1C2=O"
value_reported = 39

[[record]]
smiles_record = "O=C(CN1CCNCC1)Nc1ccc2c(c1)C(=O)c1cc(NC(=O)CN3CCNCC3)ccc1C2=O"
value_reported = 76

[[record]]
smiles_record = "O=C(CCc1ccccc1)Nc1ccc2c(c1)C(=O)c1cc(NC(=O)CCc3ccccc3)ccc1C2=O"
value_reported = 44


Working through the 4 compounds below one at a time, give viability at 48 h, 100 µM for each.
1. CCCC(=O)Nc1ccc2c(c1)C(=O)c1cc(NC(=O)CCC)ccc1C2=O
2. CN(C)CC(=O)Nc1ccc2c(c1)C(=O)c1cc(NC(=O)CN(C)C)ccc1C2=O
3. CN(C)CCC(=O)Nc1ccc2c(c1)C(=O)c1cc(NC(=O)CCN(C)C)ccc1C2=O
4. CCN(CC)CC(=O)Nc1ccc2c(c1)C(=O)c1cc(NC(=O)CN(CC)CC)ccc1C2=O

1: 50; 2: 39; 3: 22; 4: 50
